Test system: MOLT-4 leukemia
protocol_text: NCI-60 one-dose screen, 48 h (100 = growth as untreated, 0 = no growth, -100 = all killed)
condition_details: 10 µM unless noted
This is part of a sample that, as a whole, favours compounds with a hit. Of some 83,000 tested, about 20% had one in any assay.
Threshold check on growth: at or above 70% gives T, strictly below gives F.

1. O/N=C/c1cccs1; T
2. Oc1ccc2ccccc2c1C1NN=C(c2ccccc2)S1 (stereo not given); F
3. O=C1OCC2=C1C(c1ccc3c(c1)OCO3)CC(=O)N2c1cccc(Cl)c1 (stereo not given); T
4. Nc1ccccc1-c1n[nH]c(=O)[nH]c1=O; T
5. Nc1nc(N)c(C=Nc2ccc(Br)cc2)c(Nc2ccc(Br)cc2)n1; F
6. O=C(NCc1cccnc1)c1ccc([N+](=O)[O-])o1; F
7. O=C(N/N=C(\CS(=O)(=O)c1ccccc1)c1cc2cc(Br)ccc2oc1=O)c1ccccc1; T
8. CCOC(=O)c1[nH]c2cc(Cl)ccc2c1[C@@H](C(=O)NC(C)(C)C)N(CC)C(=O)CCCCC#Cc1cccc2c1CN(C1CCC(=O)NC1=O)C2=O (stereo not given in full); F
9. COC(=O)c1c2c(c(C)[n+]([O-])c1C)C(=O)C=C(NCc1ccc(F)cc1)C2=O; F
10. Cc1nc2cc(Nc3nc(Nc4ccc(F)cc4)nc(-c4cccs4)n3)ccc2n1Cc1ccccc1; F

====

Test system: SF-268 CNS
protocol_text: NCI-60 one-dose screen, 48 h
condition_details: 10 µM unless noted
About 83,000 compounds went through this panel and 20% of them were active in at least one assay; those are over-represented in the sample as a whole. The source made the active and inactive calls. How the source made its calls: active means growth percent below 10; inactive means the rest.
Possible outcomes: active, inactive

1) CC(C)(C)[Si](C)(C)OC1[C@@H](COC(N)=O)O[C@@H](n2cnc3c(N)ncnc32)[C@H]1O[Si](C)(C)C(C)(C)C (stereo not given in full); inactive
2) COCCOC1=C(Cl)C(=O)c2ccccc2C1=O; inactive
3) Clc1cccc(Cl)c1Nc1ccc2nnc(-c3ccncc3)n2n1; inactive
4) Cc1ccc(S(=O)(=O)N2C/C(=C\c3cc(F)cc(F)c3)C(=O)/C(=C/c3cc(F)cc(F)c3)C2)cc1; active
5) c1ccc(-c2nc(N3CCOCC3)c3c4c(sc3n2)CCCCCC4)nc1; inactive
6) O=c1c2c(=NCCN3CCCC3)cc3c(=O)n(CCCN4CCOCC4)c(=O)c4ccc(c(O)n1CCCN1CCOCC1)c2c4-3; active
7) Cc1cc(=O)[nH]n1-c1cc(Cl)ccc1N; inactive
8) CCCOC(=O)c1ccc2c(c1)[N+](=O)C(C(=O)c1ccccc1)=C(C(F)(F)F)[N+]2=O; active
9) CCN(c1ccc(C(=O)N2CCN(c3ccccc3)CC2)cc1)S(C)(=O)=O; inactive
10) Brc1ccc(Br)nn1; active

====

Listed next: entries and their corresponding growth.
System: SK-MEL-2 melanoma
protocol_text: NCI-60 one-dose screen, 48 h (100 = growth as untreated, 0 = no growth, -100 = all killed)
condition_details: 10 µM unless noted
Compounds without any hit were thinned out: in the full panel of roughly 83,000, 20% have a hit.
experimental_endpoint: growth (%)

1. CCN(CC)c1ccc(/C=C(\C#N)c2cc3ccccc3[nH]2)cc1; 43.3
2. O=C(Nc1ccc(F)cc1)c1ccc(C(=O)Nc2ccc(F)cc2)cc1; 105
3. COc1nc2c(cc1S(=O)(=O)c1ccccc1)CCc1c-2cnn1-c1ccccc1; 83.4
4. COc1ccc(C(=O)COc2cccc(/C=C3\CSc4ccc(C)cc4C3=O)c2)cc1; 79.5
5. CCCCCCCC/C=C\CCCCCCCCOc1cccc(CC(=O)NCC[N+]2(C)CCCC2)c1; 107
6. O=[N+]([O-])c1ccc2nc(N/N=C/c3ccc(O)cc3)sc2c1; -0.896
7. O=C1c2ccccc2-c2nnc(-c3ccc(Br)cc3)cc21; -0.262
8. Cc1nc2nc(C(F)(F)F)[nH]c2nc1C; 115
9. O=C(NCc1cccnc1)c1ccc([N+](=O)[O-])o1; -16.7
10. COc1cccc2c(=O)c3c(sc12)c(NCCN(C)C)nc1ccccc13; 49.1
11. Nc1cc(Br)c(-c2nnc(CCC(=O)c3nc4ccccc4[nH]3)o2)c(Br)c1; 34.3

====

Below, each entry is listed with its recorded growth.
Test system: KM12 colon
protocol_text: NCI-60 one-dose screen, 48 h (100 = growth as untreated, 0 = no growth, -100 = all killed)
condition_details: 10 µM unless noted
Compounds without any hit were thinned out: in the full panel of roughly 83,000, 20% have a hit.
experimental_endpoint: growth (%)

1. CCCCc1ccc(NC(=O)C(F)(F)F)cc1; 97.3
2. O=S(=O)(Nc1ncccn1)c1ccc(Nc2ccc3nnc(-c4ccncc4)n3n2)cc1; 101
3. CC1=CN2C(=NC3=C(CCCC/C3=C\c3ccccc3)C2c2ccccc2)S1 (stereo unspecified); 100
4. Cc1ccc(C)c2c1sc1nc3nc4sc5ccccc5n4c(=N)c3c(=O)n12; 101
5. COc1cc(NC(=O)COc2ccccc2)c(C(N)=O)cc1OC; 29.3
6. O=C1CC2c3cc(-c4cc5ccccc5o4)ccc3CCN2C(=O)N1c1ccccc1 (stereo unspecified); 101
7. COc1ccc2c(c1)c(=O)oc1c(C)c(OCC(C)=O)ccc12; 96.6
8. CC(=O)OC[C@]1(C)C=C2C(=O)[C@](C)(O)C3(CC3)C(C)=C2[C@H]1OC(C)=O; 78.4
9. CN1CCc2cccc3c2C1Cc1ccc(O)c(O)c1-3 (stereo unspecified); 96.4
10. COc1ccc(-c2c3c(N)c4c(nc3nc3c2c(C)nn3-c2ccccc2)CCCC4)cc1; 89.6
11. Clc1ccc(C2=Nc3cccc4cccc(c34)N2)cc1Cl; 99.9
12. COc1ccc(/C=C(\C#N)c2ccc(OC)cc2)cc1; 28.4
13. COc1cc(CNCCCN2C(=O)c3ccc4c5c(ccc(c35)C2=O)C(=O)N(CCCNCc2cc(OC)c(OC)c(OC)c2)C4=O)cc(OC)c1OC; -86.9
14. COc1cccc(OC)c1OC(=O)c1ccccc1; 109
15. FC(F)(F)Oc1ccc2c(c1)C[C@H]1C[C@@H](c3ccoc3)N2O1; 103
16. CC(=O)Nc1ccc(S(=O)(=O)N/N=C\c2ccc(Cl)c(Cl)c2)cc1; 107
17. COc1ccc(/C=C(\C#N)c2cc3ccccc3n2C)cc1; 16.8
18. COc1cccc(C2CC(=O)Nc3cc4c(cc32)CCC4)c1OC (stereo unspecified); 28.5
19. Clc1nc(-c2ccccn2)nc2sc3c(c12)CCCCCC3; 91.6
20. Cn1c(=O)c2c(-c3ccccc3F)n(-c3ccc4c(c3)OCO4)cc2n(C)c1=O; 102
21. O=c1c2c(=NCCN3CCCC3)cc3c(=O)n(CCCN4CCOCC4)c(=O)c4ccc(c(O)n1CCCN1CCOCC1)c2c4-3; -20.9

====

Tested on: K-562 leukemia
protocol_text: NCI-60 one-dose screen, 48 h (100 = growth as untreated, 0 = no growth, -100 = all killed)
condition_details: 10 µM unless noted
Compounds without any hit were thinned out: in the full panel of roughly 83,000, 20% have a hit. Activity calls are given as the source filed them. How the source made its calls: active means growth percent below 10; inactive means the rest.
Listed below: growth values for each entry.
experimental_endpoint: growth

1. COc1cc(OCc2cccc(-c3ccc(C(O)c4nccs4)cc3)c2C)cc(OC)c1C=O (configuration not stated); 18% (inactive)
2. COc1ccc(/C=C2\SC(=O)N(CN3CCN(c4cc5c(cc4F)c(=O)c(C(=O)O)cn5C4CC4)CC3)C2=O)cc1; 114% (inactive)
3. CN(C)c1ccc(/C=C(\C#N)c2cc3ccccc3n2C)cc1; 7.77% (active)
4. O=C(O)CCN1CCN(c2cccc(Cl)c2)CC1; 99.8% (inactive)
5. O=C(c1ccc2ncc(-c3nc(NC4CC4)ncc3F)n2c1)N1CCOCC1; 73.6% (inactive)
6. CCOC(=O)C1=C(C)N2C(=NC3=C(CCCC/C3=C\c3ccccc3)C2c2ccccc2)S1 (configuration not stated); 99.2% (inactive)
7. COc1ccc(Sc2ccc3[nH]c(=O)nc(N)c3c2)cc1; 100% (inactive)
8. Nc1cc2[nH]c(=O)c3ccccc3c2cc1Br; 95% (inactive)
9. CC(=O)Nc1ccc(S(=O)(=O)N/N=C\c2ccc(Cl)c(Cl)c2)cc1; 116% (inactive)
10. Cc1nc2cc(Nc3nc(N4CCOCC4)nc(N4CCN(C)CC4)n3)ccc2n1Cc1ccccc1; 90.3% (inactive)
11. COc1cc(-c2nc3ccccc3o2)cc(CN2CCN(c3ccccc3)CC2)c1O; 40.1% (inactive)
12. O=c1[nH]c(=S)c2c(n1CCCO)CCC2; 93.4% (inactive)
13. Cn1c2c(cc(S(=O)(=O)c3ccccc3)c1=O)CCc1c-2cnn1-c1cccc(Cl)c1; 73.3% (inactive)
14. COc1c(Cl)ccc2c(-c3nc4cc(Cl)c(F)cc4s3)cc(=O)oc12; 64.9% (inactive)
15. COc1ccc(/C=N/OCC(O)CN2CCC(O)CC2)cc1OC1CCCC1 (configuration not stated); 100% (inactive)
16. O=S(=O)(Nc1ncccn1)c1ccc(Nc2ccc3nnc(-c4ccncc4)n3n2)cc1; 102% (inactive)
17. O=C1C(OCCOc2ccccc2)=C(OCCOc2ccccc2)C(=O)c2ccccc21; 66.4% (inactive)
18. COc1ncc(F)c(OC)n1; 100% (inactive)
19. Cc1cccc2c(=O)c3c(sc12)c(NCCNCCO)nc1ccccc13; -65.7% (active)
20. Cc1c(C)n(CC(O)CNC2CCCCC2C)c2ccccc12 (configuration not stated); 4.09% (active)
21. O=C(COc1ccc(/C=C2\CSc3ccccc3C2=O)cc1)c1ccc(Cl)cc1; 99.2% (inactive)
22. COC(=O)CCC(=O)c1ccccc1; 96.9% (inactive)
